target: Aedes aegypti neuropeptide Y-like receptor 7 (NPYLR7); assay: agonists of mosquito NPYLR7 receptor, confirmation, cell-based, Aedes aegypti, hit validation, mosquito biting behavior (AID 1259427); conditions: HEK293T NPYLR7/Galpha15/GCaMP6s, calcium fluorescence;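 note: potency of agonists that activate the receptor and raise the calcium signal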
Calls of active or inactive are those of the source.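 Rule for the calls: active = EC50 at or below a set limit, with no effect in the paired counter-screen assay; inactive = the rest.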
Parameter measured: EC50

>  <Molecule>
CCOC(=O)C1CCN(C(=O)CC(c2cccc(C(F)(F)F)c2)c2c[nH]c3c(CC)cccc23)CC1 (stereo not given)

>  <EC50>
> 20 µM (inactive)

$$$$
>  <Molecule>
O=C(O)c1[nH]ncc1CN1CCc2onc(-c3ccc(C(F)(F)F)cc3)c2C1

>  <EC50>
> 20 µM (inactive)

$$$$
>  <Molecule>
COc1cc(NC(=O)N2CC(=O)N3CCc4c(F)cccc4C3C2)cc(OC)c1OC (stereo not given)

>  <EC50>
> 20 µM (inactive)

$$$$
>  <Molecule>
Cc1cc(O)c(CN2CCN(C)CC2)c2c1C(=O)/C(=C/c1cccs1)O2

>  <EC50>
> 20 µM (inactive)

$$$$
>  <Molecule>
Cc1ccc2c(c1)CCCN2CC(=O)N(CCC(N)=O)c1ccccc1

>  <EC50>
> 20 µM (inactive)

$$$$

// EC50 lookup, key: CCN1CC=C2C(C#N)C(=N)C(C#N)(C#N)C(c3cccs3)C2C1 (stereo not given)
> 20 µM (inactive)

And then CCN=c1cc2oc3cc(NCC)c(C)cc3c(-c3ccccc3C(=O)OCC)c-2cc1C , what is it?
inactive

And then O=C1c2ccccc2-c2nn(CN3CCN(c4ccccc4)CC3)c3cccc1c23 , what is it?
> 20 µM (inactive)

And then CC(C)N=c1c([N+](=O)[O-])nn(-c2ccc(Cl)cc2)n1O , what is it?
> 20 µM (inactive)

And then O=C(c1cnn(-c2ccccc2)n1)N1CCCC(COCc2ccccc2)C1 (stereo not given) , what is it?
inactive
